Each item that follows carries a reported growth.
Test system: M14 melanoma
test_summary: NCI-60 one-dose screen, 48 h (100 = growth as untreated, 0 = no growth, -100 = all killed)
condition_parameters: 10 µM unless noted
About 83,000 compounds went through this panel and 20% of them were active in at least one assay; those are over-represented in the sample as a whole.
The reply should be a number in %, with the unit left off.

molecule: O=C(NCCCN1CCCCC1)c1ccc(-c2nc3ccc4[nH]ncc4c3c3c2CCCC3)cc1
unit: %
growth: 57.3

molecule: COc1cccc(NC(=O)c2sc3nc(C)c(C(O)c4ccccc4)cc3c2N)c1 (stereo not given)
unit: %
growth: 13.9

molecule: COc1cc2cc(NCc3ccncc3)nc(C)c2cc1OC
unit: %
growth: 82

molecule: O=[N+]([O-])c1ccc2[nH]c3nccc(NCc4cccc(Cl)c4)c3c2c1
unit: %
growth: 83.4

Could you now consider this next molecule?
Find the recorded growth belonging to `Brc1ccc(/C=C(/C2=NCCN2)n2ccc3ccccc32)cc1` and report it. 65.1

---

Test system: MDA-MB-231 breast
test_summary: NCI-60 one-dose screen, 48 h (100 = growth as untreated, 0 = no growth, -100 = all killed)
condition_parameters: 10 µM unless noted
The panel holds about 83,000 compounds, 20% with a hit somewhere; the sample as a whole holds those more often.
Each item that follows carries a reported growth.
The reply should be a number in %, with the unit left off.

In the examples that follow, each entry is paired with its recorded growth.
compound: Cc1ccc(-c2nc3nc(-c4ccccc4)nc(N4CCN(S(=O)(=O)c5ccccc5)CC4)c3o2)cc1
assay_system: MDA-MB-231 breast
growth (%): 72.4
--
compound: O=c1c(/C=C/c2ccco2)nnc2sc(Nc3ccc(Cl)cc3)nn12
assay_system: MDA-MB-231 breast
growth (%): 96.4
--
compound: O=C1OCC2=C1C(c1cccc(C(F)(F)F)c1)c1cc3c(cc1N2CCO)OCCO3 (configuration not stated)
assay_system: MDA-MB-231 breast
growth (%): 37.6
--
compound: CC[C@]12CN3CCc4c([nH]c5ccccc45)[C@@](C(=O)OC)(c4cc5c(cc4OC)N(C)[C@H]4[C@@](O)(C(=O)OC)[C@H](OC(C)=O)[C@]6(CC)C=CCN7CC[C@]54[C@@H]76)CC(C3)[C@H]1O2 (some centres not stated)
assay_system: MDA-MB-231 breast
growth (%): -28.8
--
compound: COc1cccc(C2C(C#N)=C(N)Oc3cc(OCCCCCC[P+](c4ccccc4)(c4ccccc4)c4ccccc4)ccc32)c1 (configuration not stated)
assay_system: MDA-MB-231 breast
growth (%): -54.1

Find the recorded growth belonging to `CCOC(=O)c1nnn(Cc2cc(=O)oc3c2ccc2ccccc23)c1C` and report it. 98.7

Find the recorded growth belonging to COc1ccc(C2Nc3nc(SC)nc(N)c3N=C3c4ccccc4CCC32)cc1 (configuration not stated) and report it. 83.5

Find the recorded growth belonging to `CNC(=O)c1cc(Oc2ccc3nc(NC(=O)Nc4ccc(C(F)(F)F)cc4)sc3c2)ccn1` and report it. 63.5

Find the recorded growth belonging to CCOC(=O)CC1CSC(c2cccc(Cl)c2)=N1 (configuration not stated) and report it. 105

Find the recorded growth belonging to `COC(=O)c1c2c(c(C)[n+]([O-])c1C)C(=O)C(NCCN1CCOCC1)=CC2=O` and report it. 70.8

Find the recorded growth belonging to `CCN(CC)CCOc1ccccc1C` and report it. 103
